Each recorded value in this set is attributed to patent US20210130452A1.

# EXPERIMENTAL SYSTEM: T1, human IL-17F (human, UniProt Q96PD4 31-163, biotinylated with Sulfo-NHS-LC-Biotin in the AlphaScreen assays only)
# T1 construct: also called hIL-17F; recombinant human IL-17F
# T1 sequence: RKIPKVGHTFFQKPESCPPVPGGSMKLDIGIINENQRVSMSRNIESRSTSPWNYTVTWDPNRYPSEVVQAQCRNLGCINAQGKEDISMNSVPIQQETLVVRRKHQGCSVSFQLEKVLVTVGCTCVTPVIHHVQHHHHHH
# ASSAY REMARKS: AlphaScreen competition, hIL-17F - IL-17RA-Fc
Param label: returns Criterion met when IC50 < 1 nM, returns Criterion not met otherwise, including exact equality.

The following binders have reported results that may help.
BINDER	DISCRETE LABEL
16A04 (VHH, Class 3 Nanobody (anti-IL-17F); also called IL17MS16A04; not shown: c-myc, His6 tag) VHH: EVQLVESGGGLVQAGGSLRLSCAASGRTFSSYVVGWFRQAPGKEREFIGAISGSGDSIYYAVSEKDRFTISRDNGKNTLYLQMSSLKAEDTAVYYCTADQEFGYLRFGRSEYWGQGTQVTVSS	Criterion not met
17C01 (VHH, Class 4 Nanobody (cross-reactive: anti-IL-17A, IL-17F and IL-17A/F); not shown: c-myc, His6 tag) VHH: EVQLVESGGRLVQAGGSLRLPCAASGRTFTSYPMGWFRQAPGKEREFVAAISMSGDDAAYADFVRGRFTISRDDARNTVYLHMTSLKPEDTAVYYCAARTSYDGTYDYIDDYSYWGQGTQVTVSS	Criterion met
13E02 (VHH, Class 4 Nanobody (cross-reactive: anti-IL-17A, IL-17F and IL-17A/F); also called IL17MS13E02; not shown: c-myc, His6 tag) VHH: EVQLVESGGGLVQAGGSLRLSCAASGRTYDAMGWLRQAPGKEREFVAAISGSGDDTYYADSVKGRFTISKDNAGITMYLQMNSLKPEDTAVYYCATRRGLYYVWDSNDYENWGQGTQVTVSS	Criterion met

Incoming: Find out if reported IC50 for 10A04 (VHH, Class 4 Nanobody (cross-reactive: anti-IL-17A, IL-17F and IL-17A/F); not shown: c-myc, His6 tag) VHH: EVQLVESGGGLVQPGGSLRLSCAASGFTFSSYWMYWVRQAPGKGLEWISALAPGGGNRYYAESVNGRFTISRDNAKNSLYLQMNSLKSEDTAVYYCAKDHNVGYRTGEYDYGGQGTQVTVSS is less than 1 nM
Outgoing: Criterion met

Incoming: Find out if reported IC50 for 08A08 (VHH, Class 3 Nanobody (anti-IL-17F); not shown: c-myc, His6 tag) VHH: EVQLVESGGGLVQAGGSLRLSCAASGRTFRPYRMGWFRRAPGKAREFVTLISWSSGRTSYADSVKGRFTISRDSAKNAVYLQMDNLKPEDTAVYFCAVDLSGDAVYDSWGQGTQVTVSS is less than 1 nM
Outgoing: Criterion not met

Incoming: Find out if reported IC50 for 13B03 (VHH, Class 4 Nanobody (cross-reactive: anti-IL-17A, IL-17F and IL-17A/F); also called IL17MS13B03; not shown: c-myc, His6 tag) VHH: EVQLVESGGGSVQAGDSLRLSCAASGRANSINWFGWFRQTPGKEREFVAGIRWSDAYTEYANSVKGRFTISRDNAKNTVDLQMDSLKPEDTAVYYCVLDLSTVRYWGQGTQVTVSS is less than 1 nM
Outgoing: Criterion not met

Incoming: Find out if reported IC50 for 18B05 (VHH, Class 4 Nanobody (cross-reactive: anti-IL-17A, IL-17F and IL-17A/F); not shown: c-myc, His6 tag) VHH: EVQLVKSGGGLVQPGGSLRLSCAASGGTFSLFAMGWFREAPGKEREFVAAIRWSDGSSYYADSVKGRFTISRDNAKNAVHLQSNSLKSEDTAVYYCYADVQGGLHRYWGQGTQVTVSS is less than 1 nM
Outgoing: Criterion not met

Incoming: Find out if reported IC50 for 12A09 (VHH, Class 3 Nanobody (anti-IL-17F); not shown: c-myc, His6 tag) VHH: EVQLVESGGGLVQPGGSLRLSCAASGFTFSSYRMAWVRQAPGKGLEWVSSTSTGGEMTNYADSVKGRFTISRDNAKNTLHLQMNSLKPEDTALYYCAAGTSAGHWSTGGQGTQVTVSS is less than 1 nM
Outgoing: Criterion not met
